In this section, each of the compounds is paired with its reported Emax.
Subject of test: human FXR (NR1H4) (Homo sapiens, UniProt Q96RI1)
Sequence (Q96RI1 whole entry, the tested form may be a part): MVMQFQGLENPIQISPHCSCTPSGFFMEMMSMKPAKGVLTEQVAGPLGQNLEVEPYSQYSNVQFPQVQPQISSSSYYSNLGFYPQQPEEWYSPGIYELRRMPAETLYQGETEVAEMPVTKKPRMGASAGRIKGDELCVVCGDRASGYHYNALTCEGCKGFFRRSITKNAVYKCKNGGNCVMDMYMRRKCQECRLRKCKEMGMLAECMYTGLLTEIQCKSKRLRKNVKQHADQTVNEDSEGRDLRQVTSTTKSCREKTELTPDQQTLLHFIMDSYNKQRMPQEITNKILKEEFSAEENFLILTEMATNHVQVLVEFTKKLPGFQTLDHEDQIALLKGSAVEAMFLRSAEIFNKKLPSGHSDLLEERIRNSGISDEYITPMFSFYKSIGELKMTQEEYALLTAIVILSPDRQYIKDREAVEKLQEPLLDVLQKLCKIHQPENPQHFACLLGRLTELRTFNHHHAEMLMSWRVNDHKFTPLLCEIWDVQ
Assay overview: Human FXR (NR1H4) Assay: Gal4 promoter driven luciferase reporter transactivation in CHO cells (Indigo Bioscience kit IB00601)
Type: cell-based
Condition label: CHO, efficacy normalized to CDCA set as 100%; read-out: Efficacy (%)
Method: Human FXR (NR1H4) Assay Determination of a ligand mediated Gal4 promoter driven transactivation to quantify ligand binding mediated activation of FXR. […] The principle application of this reporter assay system is to quantify functional activity of human FXR. […] Luminescence intensity of the reaction is quantified using a plate-reading luminometer, Envision. […] Cells were incubated for additional 22 hours before luciferase activities were measured. […] Read time may be 0.5 second (500 mSec) per well.
Quantity kind: Emax (%)

1. O=C(NCc1ccccc1)N1C2CCC1CC(OCc1c(-c3c(Cl)cccc3Cl)noc1C1CC1)C2 (stereo not shown) [Example 730] ... 252
2. O=C(Nc1cccc(-c2cnn(C3CCOCC3)c2)c1)N1C2CCC1CC(OCc1c(-c3c(Cl)cccc3Cl)noc1C1CC1)C2 (stereo not shown) [Example 708] ... 209
3. COC(=O)c1ccc(NC(=O)N2C3CCC2CC(OCc2c(-c4c(Cl)cccc4Cl)noc2C2CC2)C3)nc1 (stereo not shown) [Example 786] ... 44
4. O=C(O)c1ccc(NC(=O)N2C3CCC2CC(OCc2c(-c4c(Cl)cccc4Cl)noc2C2CC2)C3)cc1-c1cncnc1 (stereo not shown) [Example 782] ... 20
5. O=C(O)c1ccc(NC(=O)N2C3CCC2CC(OCc2c(-c4c(F)cccc4F)noc2C2CC2)C3)cc1-c1ccccc1 (stereo not shown) [Example 816] ... 36
6. CC1(S(=O)(=O)NC(=O)c2ccc(NC(=O)N3C4CCC3CC(OCc3c(-c5c(Cl)cccc5Cl)noc3C3CC3)C4)c(F)c2)CC1 (stereo not shown) [Example 693] ... 203
7. O=C(O)c1ccnc(NC(=O)N2C3CCC2CC(OCc2c(-c4ccccc4OC(F)(F)F)noc2C2CC2)C3)c1 (stereo not shown) [Example 770] ... 93
8. COc1cc(C(=O)O)c(-c2ccccc2)cc1NC(=O)N1C2CCC1CC(OCc1c(-c3c(Cl)cccc3Cl)noc1C1CC1)C2 (stereo not shown) [Example 793] ... 99
9. COC(=O)c1ccc2nc(NC(=O)N3C4CCC3CC(OCc3c(-c5c(Cl)cccc5Cl)noc3C3CC3)C4)ccc2c1 (stereo not shown) [Example 785] ... 46
10. O=C(Nc1cccc(-c2ccccn2)c1)N1C2CCC1CC(OCc1c(-c3c(Cl)cccc3Cl)noc1C1CC1)C2 (stereo not shown) [Example 736] ... 136
11. COc1ccc(C(=O)O)cc1NC(=O)N1C2CCC1CC(OCc1c(-c3c(Cl)cccc3Cl)noc1C1CC1)C2 (stereo not shown) [Example 725] ... 140
12. O=C(O)c1ccc2nc(NC(=O)N3C4CCC3CC(OCc3c(-c5c(Cl)cccc5Cl)noc3C3CC3)C4)ccc2c1 (stereo not shown) [Example 789] ... 57
13. O=C(O)c1cccc(NC(=O)N2C3CCC2CC(NCc2c(-c4c(Cl)cccc4Cl)noc2C2CC2)C3)c1 (stereo not shown) [Example 828] ... 59
